Reported values of relative CpG methylation activity for individual entries
biological target: DNMT3B catalytic domain (mouse) (UniProt O88509); assay: relative CpG methylation activity (normalised to average over all NNNCGNNN flanks) (relative (1 = mean)); higher = more methylation of the central CpG; details: system: in vitro, murine catalytic domain; CpG state: hemimethylated substrate pool; residues: 558-859
Sequence (O88509 558-859): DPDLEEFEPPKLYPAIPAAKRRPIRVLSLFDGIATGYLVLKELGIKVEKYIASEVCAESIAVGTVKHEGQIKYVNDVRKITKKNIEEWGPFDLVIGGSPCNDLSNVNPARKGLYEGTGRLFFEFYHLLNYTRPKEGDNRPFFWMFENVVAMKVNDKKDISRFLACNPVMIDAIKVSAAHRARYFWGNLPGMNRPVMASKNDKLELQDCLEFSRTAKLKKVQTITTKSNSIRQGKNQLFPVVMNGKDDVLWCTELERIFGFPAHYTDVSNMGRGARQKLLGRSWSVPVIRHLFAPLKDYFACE
Over roughly 4,100 sequences, “relative CpG methylation activity (normalised to average over all NNNCGNNN flanks)” has its median near 0.94; the highest 2% begin near 1.9. The sample as a whole holds a higher share of the highest values than the screen did.
measured.parameter: relative CpG methylation activity

[[record]]
residue_string = "CTACGACT"
endpoint_value = 1.92

[[record]]
residue_string = "ATACGAGC"
endpoint_value = 1.87

[[record]]
residue_string = "CTGCGGAA"
endpoint_value = 0.922

[[record]]
residue_string = "GTACGACT"
endpoint_value = 1.46

[[record]]
residue_string = "ATACGAGT"
endpoint_value = 1.92

[[record]]
residue_string = "ATCCGTCC"
endpoint_value = 1.35

[[record]]
residue_string = "ATACGGAC"
endpoint_value = 1.59

[[record]]
residue_string = "GTACGGCC"
endpoint_value = 1.9

[[record]]
residue_string = "TCACGGCG"
endpoint_value = 1.89

[[record]]
residue_string = "ACGCGTGA"
endpoint_value = 0.523

[[record]]
residue_string = "TTACGAGG"
endpoint_value = 1.8

[[record]]
residue_string = "ATACGGCT"
endpoint_value = 1.89

[[record]]
residue_string = "TCCCGTTA"
endpoint_value = 0.532

[[record]]
residue_string = "ATACGAAT"
endpoint_value = 1.64

[[record]]
residue_string = "CTACGAGA"
endpoint_value = 1.96

[[record]]
residue_string = "TTACGGCG"
endpoint_value = 2.25

[[record]]
residue_string = "TTACGAGA"
endpoint_value = 1.84


---

biological target: DNMT3B catalytic domain (mouse) (UniProt O88509); assay: relative CpG methylation activity (normalised to average over all NNNCGNNN flanks) (relative (1 = mean)); higher = more methylation of the central CpG; conditions: system: in vitro, murine catalytic domain; CpG state: hemimethylated substrate pool; residues: 558-859
Over roughly 4,100 sequences, “relative CpG methylation activity (normalised to average over all NNNCGNNN flanks)” has its median near 0.94; the highest 2% begin near 1.9. Many of the other results were omitted from the sample, so the highest values are more common in it than they were.
measured.parameter: relative CpG methylation activity

[[record]]
residue_string = "CTACGGCG"
measured_parameter = "relative CpG methylation activity"
endpoint_value = 2.04

[[record]]
residue_string = "ACCCGGAT"
measured_parameter = "relative CpG methylation activity"
endpoint_value = 0.954

[[record]]
residue_string = "TCACGGCC"
measured_parameter = "relative CpG methylation activity"
endpoint_value = 1.74

[[record]]
residue_string = "GTACGGCA"
measured_parameter = "relative CpG methylation activity"
endpoint_value = 1.9


---

molecular target: DNMT3B catalytic domain (mouse) (UniProt O88509); assay: relative CpG methylation activity (normalised to average over all NNNCGNNN flanks) (relative (1 = mean)); higher = more methylation of the central CpG; conditions: system: in vitro, murine catalytic domain; CpG state: hemimethylated substrate pool; residues: 558-859
Over roughly 4,100 sequences, “relative CpG methylation activity (normalised to average over all NNNCGNNN flanks)” has its median near 0.94; the highest 2% begin near 1.9. This is one part of a sample in which the highest values are shown more often than they occur.
Here, each record is paired with measured relative CpG methylation activity data.
measured.parameter: relative CpG methylation activity

[[record]]
residue_string = "ACACGGCC"
measured_parameter = "relative CpG methylation activity"
endpoint_value = 1.94

[[record]]
residue_string = "GCACGGCC"
measured_parameter = "relative CpG methylation activity"
endpoint_value = 1.77

[[record]]
residue_string = "CGACGGCG"
measured_parameter = "relative CpG methylation activity"
endpoint_value = 1.93

[[record]]
residue_string = "CTACGGGA"
measured_parameter = "relative CpG methylation activity"
endpoint_value = 1.91

[[record]]
residue_string = "TTACGTCC"
measured_parameter = "relative CpG methylation activity"
endpoint_value = 1.93

[[record]]
residue_string = "TAGCGCCT"
measured_parameter = "relative CpG methylation activity"
endpoint_value = 0.72

[[record]]
residue_string = "GTACGGGT"
measured_parameter = "relative CpG methylation activity"
endpoint_value = 1.85

[[record]]
residue_string = "ACCCGATT"
measured_parameter = "relative CpG methylation activity"
endpoint_value = 1.41

[[record]]
residue_string = "AGACGGCG"
measured_parameter = "relative CpG methylation activity"
endpoint_value = 1.94

[[record]]
residue_string = "TGACGGCG"
measured_parameter = "relative CpG methylation activity"
endpoint_value = 1.63

[[record]]
residue_string = "CTCCGCGT"
measured_parameter = "relative CpG methylation activity"
endpoint_value = 0.717

[[record]]
residue_string = "TTACGGGA"
measured_parameter = "relative CpG methylation activity"
endpoint_value = 1.92

[[record]]
residue_string = "CTCCGGCC"
measured_parameter = "relative CpG methylation activity"
endpoint_value = 1.94

[[record]]
residue_string = "CTACGGGC"
measured_parameter = "relative CpG methylation activity"
endpoint_value = 1.75

[[record]]
residue_string = "TTACGGGC"
measured_parameter = "relative CpG methylation activity"
endpoint_value = 2.03

[[record]]
residue_string = "AAACGGCG"
measured_parameter = "relative CpG methylation activity"
endpoint_value = 1.68

[[record]]
residue_string = "TTACGTAT"
measured_parameter = "relative CpG methylation activity"
endpoint_value = 1.19

[[record]]
residue_string = "GTTCGGTC"
measured_parameter = "relative CpG methylation activity"
endpoint_value = 1.15

[[record]]
residue_string = "GGCCGCGC"
measured_parameter = "relative CpG methylation activity"
endpoint_value = 0.361

[[record]]
residue_string = "TATCGAGG"
measured_parameter = "relative CpG methylation activity"
endpoint_value = 1.5

[[record]]
residue_string = "ACACGGCA"
measured_parameter = "relative CpG methylation activity"
endpoint_value = 1.89

[[record]]
residue_string = "ACACGGCG"
measured_parameter = "relative CpG methylation activity"
endpoint_value = 1.6

[[record]]
residue_string = "TCCCGGCA"
measured_parameter = "relative CpG methylation activity"
endpoint_value = 1.62

